# credit: PubChem BioAssay AID686979

# ASSAY_PROTOCOL: qHTS for Inhibitors of human tyrosyl-DNA phosphodiesterase 1 (TDP1): qHTS in cells in presence of CPT; also: nearly all actives have a fitted effect of over 55% in size
# MEASUREMENT_PARAMETERS: chicken DT40 Tdp1-/-;hTDP1 cells + 20 nM CPT, ATP luminescence, 48 h; series mostly up to 46.2 µM
Out of some 420,000 compounds screened, about 50,000 (12%) were called active. Not shown: some 26% with an inconclusive outcome. Calls follow the shape of the dose curve; as a rule, active = well fitted inhibition curve with a large enough effect; inconclusive = small, poorly fitted or top-dose-only effect; inactive = flat fitted curve, though single readings scatter. Only a selection was taken, and actives are over-represented in it overall.
Pick one and only one: YES = active, NO = inactive

stdin: Please share the test call associated with `O=C(/C=C/c1ccc(Cl)c([N+](=O)[O-])c1)c1ccc(O)cc1` .
stdout: YES

stdin: Outcome logged for `COc1cccc2cc(C(N)=O)/c(=N\NC(=O)c3ccccc3)oc12` in this assay:
stdout: NO

stdin: What outcome does the record of this test show for COc1ccc(OC)c(CN2C(=O)CCC2(C)c2nnnn2Cc2ccccc2)c1 (centres undefined) ?
stdout: NO

stdin: So what was the verdict on `Cc1ccc(C(=O)NC(=S)Nc2ccccc2C)cc1` in this test?
stdout: NO

stdin: Please state the recorded outcome for this compound: CC(Oc1ccccc1)C(=O)Nc1c2c(nn1-c1ccccc1)CS(=O)C2 (centres undefined)
stdout: NO

stdin: Per the assay record, what outcome was assigned to `O=C(Nc1cccc(NC(=O)c2ccccc2[N+](=O)[O-])c1)c1ccccc1Cl` ?
stdout: NO

stdin: Record request — test call for `CC(=O)Nc1ccc(NC(=O)COc2ncnc3ccccc23)cc1`
stdout: NO

stdin: How was CC(=O)Nc1ccc(NC(=O)CSc2nnc(COc3ccccc3C)n2CC2CCCO2)cc1 (centres undefined) classified in this test?
stdout: NO

stdin: Test call, this compound: `CC(=O)Cc1nsc(NC(=O)c2csc3c2CCCC3)n1`
stdout: NO

stdin: // param item: `CCn1c(=O)c2ccccc2n(CC(=O)N2CCCc3ccccc32)c1=O` ; yields the recorded call
stdout: NO

stdin: I'd appreciate the recorded outcome for `Cc1noc(C)c1CSCC(=O)Nc1nc2ccc(Oc3ccccc3)cc2s1` from this test.
stdout: NO

stdin: Record request — test call for COC(=O)C1=C(N)Oc2c(oc(CO)cc2=O)C1c1c(F)cccc1Cl (centres undefined)
stdout: NO

stdin: Would you mind telling me which call this test gave `O=C(Nc1ccc(Cl)cc1)c1csc([C@@H]2O[C@H](CO)[C@H](O)[C@H](O)[C@H]2O)n1` ?
stdout: NO

stdin: Would you mind telling me which call this test gave `Cc1cccc(NC(=O)NC(=S)NC(=O)c2ccccc2)c1` ?
stdout: YES

====

# ASSAY_PROTOCOL: qHTS for Inhibitors of human tyrosyl-DNA phosphodiesterase 1 (TDP1): qHTS in cells in presence of CPT; also: nearly all actives have a fitted effect of over 55% in size; also: potency is read from the fitted curve at half-maximal effect
# MEASUREMENT_PARAMETERS: chicken DT40 Tdp1-/-;hTDP1 cells + 20 nM CPT, ATP luminescence, 48 h; series mostly up to 46.2 µM
The campaign covered roughly 420,000 compounds. About 50,000 (12%) were called active. Another 26% or so got no clear call; they are omitted. The entries come from a sample that favours actives as a whole.
READOUT_LABEL: Potency

Look over these answered cases.
stdin: Reported Potency, molecule `Cc1ccc2nc(-c3cccc(Br)c3)cc(C(=O)Nn3cnnc3)c2c1` : ____
stdout: inactive

stdin: What measured Potency goes with `O=c1[nH]c(=O)n(Cc2ccco2)c2c1C(C(F)(F)F)(C(F)(F)F)N=C(c1ccco1)N2` ?
stdout: inactive

stdin: Requested read-out: Potency. Entry: CCN1CC(CN(C)Cc2nc(-c3ccc(Cl)cc3)no2)CC1=O (stereo unspecified)
stdout: 16.4 µM (active)

stdin: What does the data say about its Potency? Entry: `CC(=O)NCCC(=O)Nc1cc(S(=O)(=O)N2CCCCC2)ccc1Oc1cccc(C)c1`
stdout: inactive

stdin: Which Potency is listed for CCOc1ccc(C(=O)Nc2ccc(S(=O)(=O)NCC3CCCO3)cc2)cc1OCC (stereo unspecified) ?
stdout: inactive

Continuing:
stdin: Any idea what Potency was measured for CCOc1ccc(S(=O)(=O)NCC2CCCO2)cc1 (stereo unspecified) ?
stdout: inactive

stdin: Which Potency reading was recorded for the molecule CC1CN(CC(=O)NC(C)c2ccccc2)CC(C)O1 (stereo unspecified) ?
stdout: inactive

stdin: Field request: Potency | item: CCOC(=O)C1=C(CN2CCc3ccccc32)NC(=O)NC1c1cc(C)ccc1C (stereo unspecified)
stdout: 17.8 µM (active)

stdin: I am curious: what Potency value has been reported for CCCCCN(C(=O)CCC(=O)OCC(=O)NC1CCC(C)CC1)c1c(N)n(CCCC)c(=O)[nH]c1=O (stereo unspecified) ?
stdout: inactive

stdin: Which Potency value belongs to CCOC(=O)C1=C(CN2CCc3ccccc32)NC(=O)NC1c1cccc([N+](=O)[O-])c1 (stereo unspecified) ?
stdout: 14.1 µM (active)

stdin: Would you kindly share the measured Potency for `N#C/C(=C\c1cccnc1)C(=O)Nc1ccc(SC(F)F)cc1` ?
stdout: inactive

stdin: Reported Potency for `Cc1ccc2nc(-c3ccncc3)cc(C(=O)Nc3ccncc3)c2c1` : what is it?
stdout: 13 µM (active)

stdin: Need Potency, item `Cc1ccc(-c2nc3ccccc3[nH]c2=O)cc1`
stdout: inactive

stdin: Can you look up the measured Potency of O=C(Cc1ccc(NC(=O)C2CCCN(C(=O)C3CCCCC3)C2)cc1)Nc1cccc(C(=O)N2CCCCC2)c1 (stereo unspecified) for me?
stdout: inactive

stdin: Need Potency, item `N#CCCN(C(=O)Nc1ccc(Cl)c(Cl)c1)C1CCCCC1`
stdout: inactive

stdin: Bench note: what Potency did `CCOc1ccccc1Nc1ccc2nonc2c1[N+](=O)[O-]` show?
stdout: inactive

stdin: GET /values?readout=Potency&item= `COCCn1c(=O)[nH]c(=O)c2cc(C(=O)c3cc(OC)ccc3O)cnc21`
stdout: inactive

stdin: Any idea what its Potency is? The molecule is `CN(CCN1CCOCC1)Cc1nc(-c2ccc3c(c2)OCO3)no1`
stdout: inactive

====

# ASSAY_PROTOCOL: qHTS for Inhibitors of human tyrosyl-DNA phosphodiesterase 1 (TDP1): qHTS in cells in presence of CPT; also: nearly all actives have a fitted effect of over 55% in size
# MEASUREMENT_PARAMETERS: chicken DT40 Tdp1-/-;hTDP1 cells + 20 nM CPT, ATP luminescence, 48 h; series mostly up to 46.2 µM
# Method: Human tyrosyl-DNA phosphodiesterase 1 (TDP1) is a novel repair gene, and we propose to use it as a new target for anticancer drug development. […] For the primary screen, Tdp1-/-;hTDP1 cells will be exposed to small molecules in the presence or absence of CPT, and their growth kinetics will be evaluated after 48 hours by measuring ATP activity. […] The hit compounds will then be evaluated in the presence or absence of CPT using Tdp1-/- cells. […]
Out of some 420,000 compounds screened, about 50,000 (12%) were called active. Not shown: some 26% with an inconclusive outcome. The call rests on the fitted dose curve; in most records, active means well fitted inhibition curve with a large enough effect; inconclusive means small, poorly fitted or top-dose-only effect; inactive means flat fitted curve, though single readings scatter. Shown is part of a subset that was picked to be rich in actives.
Valid outcomes are listed here; reply with one: TRUE for active, FALSE for inactive

stdin: Check the results log: what was the call for `CN(C)c1nc(=Nc2cccc(Cl)c2)ss1` ?
stdout: TRUE

stdin: Please let me know the test result on file for CC(OC(=O)CN1C(=O)C2CCCCC2C1=O)C(=O)Nc1ncc(Cl)cc1Cl (stereo not given) .
stdout: FALSE

stdin: Fill in: this test's call for `CCN(Cc1ccncc1)C(=S)Nc1ccccc1C` is ___
stdout: FALSE

stdin: Hello, I am checking results. What call was entered for CC(C)(C)N1CC(c2nc3ccccc3n2Cc2ccc(F)cc2)CC1=O (stereo not given) ?
stdout: FALSE

stdin: Status in this test for CCc1ccccc1N1CC(c2nc3ccccc3n2CCCCOc2ccccc2)CC1=O (stereo not given) ?
stdout: FALSE

====

# ASSAY_PROTOCOL: qHTS for Inhibitors of human tyrosyl-DNA phosphodiesterase 1 (TDP1): qHTS in cells in presence of CPT; also: nearly all actives have a fitted effect of over 55% in size; also: potency is read from the fitted curve at half-maximal effect
# MEASUREMENT_PARAMETERS: chicken DT40 Tdp1-/-;hTDP1 cells + 20 nM CPT, ATP luminescence, 48 h; series mostly up to 46.2 µM
Among all 420,000 compounds or so, about 50,000 (12%) were called active. Not shown: some 26% with an inconclusive outcome. The list comes from a sample in which actives are over-represented; it also holds close analogues and randomly drawn compounds.
READOUT_LABEL: Potency

stdin: May I ask what Potency has been recorded for NC(=O)c1nsc(C(=O)N(CCCN2CCOCC2)C(C(=O)NC2CCCCC2)c2ccc(Cl)cc2)c1N (centres undefined) ?
stdout: inactive

stdin: Recorded Potency of `CC(=O)NS(=O)(=O)c1ccc2c(c1)Cc1cc(S(=O)(=O)NC(C)=O)ccc1-2` , please.
stdout: inactive

stdin: Value lookup for Potency; key = `O=C(COc1ccc(Cl)cc1)Nc1ccc2oc(=O)ccc2c1`
stdout: inactive

stdin: Param item = `CCc1ccc(-c2nn(-c3ccccc3)cc2CSC(=N)N)cc1` ; retrieve measured Potency.
stdout: 16.4 µM (active)
